Hello, the source for this data is patent US20260176378A1, in case you need it.

Experimental Target: T1, human plasma kallikrein (human, UniProt P03952 20-390; P03952 391-638)
T1 construct: two disulfide-linked chains; NP_000883.2; also called pKal; hpKal
T1 sequence (P03952 20-390 limits assumed, chain 1 of 2): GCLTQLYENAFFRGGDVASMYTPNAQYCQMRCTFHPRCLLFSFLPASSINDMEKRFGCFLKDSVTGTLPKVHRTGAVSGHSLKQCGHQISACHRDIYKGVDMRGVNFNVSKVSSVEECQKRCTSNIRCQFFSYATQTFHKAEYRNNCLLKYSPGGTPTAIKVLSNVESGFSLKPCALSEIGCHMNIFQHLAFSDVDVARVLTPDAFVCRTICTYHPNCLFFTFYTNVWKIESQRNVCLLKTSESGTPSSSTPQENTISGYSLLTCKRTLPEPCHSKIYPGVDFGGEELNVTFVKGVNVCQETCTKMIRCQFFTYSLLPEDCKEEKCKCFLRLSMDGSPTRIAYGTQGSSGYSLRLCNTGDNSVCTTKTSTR
T1 sequence (P03952 391-638 limits assumed, chain 2 of 2): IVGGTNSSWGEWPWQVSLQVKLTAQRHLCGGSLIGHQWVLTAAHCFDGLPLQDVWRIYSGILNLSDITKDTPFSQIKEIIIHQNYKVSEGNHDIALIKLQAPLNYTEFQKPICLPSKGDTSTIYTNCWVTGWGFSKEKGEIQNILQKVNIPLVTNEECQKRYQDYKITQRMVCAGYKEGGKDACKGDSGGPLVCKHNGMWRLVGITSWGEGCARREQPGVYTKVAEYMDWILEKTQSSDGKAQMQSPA
Test Details: ELISA, biotinylated pKal signal over streptavidin background
Readout Type: ELISA (T/B)
Enter the number alone.

Short answer for M12-A08 (Fab, V domains shown) VH: EVQLLESGGGLVQPGGSLRLSCAASGFTFSWYYMGWVRQAPGKGLEWVSWIVSSGGLTLYADSVKGRFTISRDNSKNTLYLQMNSLRAEDTAMYYCARTTVTTGDAFDIWGQGTMVTVSS VL: DIQMTQSPSSLSASVGDRVTITCRASQSISRYLNWYQQKPGKAPKLLIYAASTLETGVPSRFSGSGSGTDFTLTITTLQPEDFVIYYCQQSYSTPYTFGQGTKLEIK : ELISA (T/B) was 40.4

Continuing:
Short answer for M6-A06 (Fab, V domains shown) VH: EVQLLESGGGLVQPGGSLRLSCAASGFTFSLYQMTWVRQAPGKGLEWVSGIWPSGGFTDYADSVKGRFTISRDNSKNTLYLQMNSLRAEDTAVYYCARVSTAVADNDYWGQGTLVTVSS VL: DIQMTQSPSSLSASVGDSVTISCRASQSISMYLNWYQHKPGKAPKLLIYGTSSLQSGVPSRFSGSGPGGTDFTLTISSLQPEDFATYYCQQSYSAPWTFGQGTKVEIK : ELISA (T/B) was 11.7
